assayed.target: T1, human GIP receptor (hGIPr) (Homo sapiens, UniProt P48546)
T1 construct: expressed in transfected cells
T1 sequence (P48546 22-466): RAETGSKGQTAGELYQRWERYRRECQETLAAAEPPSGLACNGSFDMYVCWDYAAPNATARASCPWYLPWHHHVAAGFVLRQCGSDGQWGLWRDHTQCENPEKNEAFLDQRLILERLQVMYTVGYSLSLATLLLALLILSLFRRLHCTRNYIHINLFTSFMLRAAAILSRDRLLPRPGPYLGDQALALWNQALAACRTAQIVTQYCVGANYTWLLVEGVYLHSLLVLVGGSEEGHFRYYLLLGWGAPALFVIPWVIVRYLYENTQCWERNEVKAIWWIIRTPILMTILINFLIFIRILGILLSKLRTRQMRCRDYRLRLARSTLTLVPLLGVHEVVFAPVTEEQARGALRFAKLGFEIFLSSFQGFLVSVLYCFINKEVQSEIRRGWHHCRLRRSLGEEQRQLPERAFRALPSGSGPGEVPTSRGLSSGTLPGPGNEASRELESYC
assay.procedure: BSA-cAMP assay, cells expressing human GIP receptor
Format: cell-based
protocol.conditions: Batch 1; BSA-cAMP assay; read-out: hGIPr cAMP activity EC50
result.type: pEC50
In plain terms, pEC50 is the concentration in mol/L turned into minus its base-10 logarithm.

## Task Look up pEC50 of IP394 (protein) YSEGMHTSDLSKLLERQAIDEFIAWLLKGGAAAGGSGSTASSGSGSATGGGGAATHTCPPC and report it.
## Result 11.02

## Task Please give the documented pEC50 of IP376 (protein) YSEGTFTSLFSKLLERQAIDEFIAWLLKGGAAAGGSGSTASSGSGSATGGGGAATHTCPPC
## Result 10.08

## Task Output measured pEC50 for this item: IP309 (protein) YSEGTFISDVSSYLERQAIDEFIAWLLKGGAAAGGSGSTASSGSGSATGGGGAATHTCPPC
## Result 10.07

## Task Give the reported value of pEC50 for this record: IP365 (protein) YSEGMHTSDFSKLLERQAIDEFIAWLLKGGAAAGGSGSTASSGSGSATGGGGAATHTCPPC
## Result 10.70

## Task Input IP401 (protein) YSEGTHTSDLSKLLERQAIDEFIAWLLKGGAAAGGSGSTASSGSGSATGGGGAATHTCPPC , output reported pEC50.
## Result 8.46
